target: SAE (Homo sapiens (Human)); test: In vitro inhibitory activity assay against SAE (SUMO-2/3 immunofluorescence in HCT116 cells); format: cell-based; conditions: 6 h incubation, class symbols, read-out: SUMO IF IC50
Sequence (Q9UBT2 whole entry): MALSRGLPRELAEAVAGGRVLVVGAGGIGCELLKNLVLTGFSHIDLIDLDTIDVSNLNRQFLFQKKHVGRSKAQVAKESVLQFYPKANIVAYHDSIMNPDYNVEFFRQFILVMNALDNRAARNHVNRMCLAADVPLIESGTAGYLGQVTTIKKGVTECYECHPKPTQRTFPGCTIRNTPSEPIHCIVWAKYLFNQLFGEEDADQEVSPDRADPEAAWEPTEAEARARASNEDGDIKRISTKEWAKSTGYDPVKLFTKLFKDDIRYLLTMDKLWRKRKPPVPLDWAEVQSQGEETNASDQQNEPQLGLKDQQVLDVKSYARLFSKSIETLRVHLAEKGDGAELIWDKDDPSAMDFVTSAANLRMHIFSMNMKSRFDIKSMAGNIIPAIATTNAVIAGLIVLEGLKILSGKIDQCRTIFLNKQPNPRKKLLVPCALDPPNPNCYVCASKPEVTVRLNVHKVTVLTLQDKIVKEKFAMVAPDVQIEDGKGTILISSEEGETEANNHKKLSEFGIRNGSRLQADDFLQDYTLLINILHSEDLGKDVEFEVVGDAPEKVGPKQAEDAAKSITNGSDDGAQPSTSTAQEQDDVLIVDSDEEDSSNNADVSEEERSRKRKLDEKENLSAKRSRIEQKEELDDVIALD
Sequence (Q9UBE0 whole entry partner): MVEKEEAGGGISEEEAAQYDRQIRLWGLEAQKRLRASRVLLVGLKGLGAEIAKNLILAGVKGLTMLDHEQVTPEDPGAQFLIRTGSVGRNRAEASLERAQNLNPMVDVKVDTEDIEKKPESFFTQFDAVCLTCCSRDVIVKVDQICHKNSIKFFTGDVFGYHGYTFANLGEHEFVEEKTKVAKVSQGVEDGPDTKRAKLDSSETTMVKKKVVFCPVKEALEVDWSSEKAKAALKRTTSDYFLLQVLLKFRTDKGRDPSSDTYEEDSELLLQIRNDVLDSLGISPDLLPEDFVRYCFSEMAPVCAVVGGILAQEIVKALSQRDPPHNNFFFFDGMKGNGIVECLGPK
pIC50: −log10 of the molar value.
Give measured pIC50 for each item. Keep answers brief.

Prompt: // query pIC50 value for entry NS(=O)(=O)OC[C@H]1C[C@@H](Nc2ncncc2C(=O)c2cc3c(s2)CCC32OCCc3ccc(Cl)cc32)C[C@@H]1O (stereo partly drawn)
Completion: ≥ 7.30

Prompt: // query pIC50 value for entry NS(=O)(=O)OC[C@H]1C[C@@H](Nc2ncncc2C(=O)c2nc3c(s2)CCC[C@@]32NCCc3ccc(Cl)cc32)C[C@@H]1O
Completion: < 6.70

Prompt: // query pIC50 value for entry NS(=O)(=O)OC[C@H]1C[C@@H](Nc2ncncc2C(=O)c2nc3c(s2)CCC[C@]32NCCc3ccc(Cl)cc32)C[C@@H]1O [Compound 126]
Completion: < 6.70

Prompt: // query pIC50 value for entry NS(=O)(=O)OC[C@H]1C[C@@H](Nc2ncncc2C(=O)c2cc3c(s2)C(=O)C[C@]32NCCc3ccc(Cl)cc32)C[C@@H]1O
Completion: 6.70 to 7.30

Prompt: // query pIC50 value for entry N#Cc1cc2c(cc1Cl)[C@@]1(CCc3sc(C(=O)c4cncnc4N[C@@H]4C[C@H](COS(N)(=O)=O)[C@@H](O)C4)cc31)NCC2
Completion: ≥ 7.30

Prompt: // query pIC50 value for entry NS(=O)(=O)OC[C@H]1C[C@@H](Nc2ncncc2C(=O)c2cc3c(s2)CN(C2CC2)CC32NCCc3ccc(Cl)cc32)C[C@@H]1O (stereo partly drawn)
Completion: ≥ 7.30

----------
target: SAE (Homo sapiens (Human)); experiment: In vitro inhibitory activity assay against SAE (SUMO-2/3 immunofluorescence in HCT116 cells); format: cell-based; settings: 6 h incubation, class symbols, read-out: SUMO IF IC50
pIC50: −log10 of the molar value.
observation-type: pIC50

Prompt: Entry NS(=O)(=O)OC[C@H]1C[C@@H](Nc2ncncc2C(=O)c2cc3c(s2)CSC[C@]32NCCc3ccc(Cl)nc32)C[C@@H]1O , system SAE (Homo sapiens (Human)): what pIC50 was measured?
Completion: ≥ 7.30

Prompt: Entry NS(=O)(=O)OC[C@H]1C[C@@H](Nc2ncncc2C(=O)c2nc3c(s2)CCC[C@]32NCCc3ccc(Cl)cc32)C[C@@H]1O [Compound 123] , system SAE (Homo sapiens (Human)): what pIC50 was measured?
Completion: 6.70 to 7.30

Prompt: Entry NS(=O)(=O)OC[C@H]1C[C@@H](Nc2ncncc2C(=O)c2cc3c(s2)CCC[C@]32NCCc3cc(Cl)ncc32)C[C@@H]1O , system SAE (Homo sapiens (Human)): what pIC50 was measured?
Completion: 6.70 to 7.30

Prompt: Entry N#Cc1ccc2c(c1)C1(CCc3sc(C(=O)c4cncnc4N[C@@H]4C[C@H](COS(N)(=O)=O)[C@@H](O)C4)cc31)NCC2 (stereo partly drawn) , system SAE (Homo sapiens (Human)): what pIC50 was measured?
Completion: 6.70 to 7.30

Prompt: Entry NS(=O)(=O)OC[C@H]1C[C@@H](Nc2ncncc2C(=O)c2cc3c(s2)CCC32NCCc3ccc(C(F)(F)F)cc32)C[C@@H]1O (stereo partly drawn) , system SAE (Homo sapiens (Human)): what pIC50 was measured?
Completion: 6.70 to 7.30

Prompt: Entry Cc1cc2c(cc1Cl)[C@@]1(CCc3sc(C(=O)c4cncnc4N[C@@H]4C[C@H](COS(N)(=O)=O)[C@@H](O)C4)cc31)NCC2 , system SAE (Homo sapiens (Human)): what pIC50 was measured?
Completion: ≥ 7.30

Prompt: Entry NS(=O)(=O)OC[C@H]1C[C@@H](Nc2ncncc2C(=O)c2cc3c(s2)CN(C2CC2)C[C@@]32OCCc3ccc(Cl)cc32)C[C@@H]1O , system SAE (Homo sapiens (Human)): what pIC50 was measured?
Completion: < 6.70

Prompt: Entry [2H]C1([2H])CN[C@]2(C=Cc3sc(C(=O)c4cncnc4N[C@@H]4C[C@H](COS(N)(=O)=O)[C@@H](O)C4)cc32)c2cc(Cl)ccc21 , system SAE (Homo sapiens (Human)): what pIC50 was measured?
Completion: ≥ 7.30

Prompt: Entry NS(=O)(=O)OC[C@H]1C[C@@H](Nc2ncncc2C(=O)c2cc3c(s2)COCC32NCCc3cc(F)c(Cl)cc32)C[C@@H]1O (stereo partly drawn) , system SAE (Homo sapiens (Human)): what pIC50 was measured?
Completion: 6.70 to 7.30

Prompt: Entry NS(=O)(=O)OC[C@H]1C[C@@H](Nc2ncncc2C(=O)c2cc3c(s2)C(F)=C[C@]32NCCc3ccc(Cl)cc32)C[C@@H]1O , system SAE (Homo sapiens (Human)): what pIC50 was measured?
Completion: ≥ 7.30

Prompt: Entry NS(=O)(=O)OC[C@H]1C[C@@H](Nc2ncncc2C(=O)c2cc3c(s2)COC[C@]32NCCc3c(F)cc(Cl)cc32)C[C@@H]1O , system SAE (Homo sapiens (Human)): what pIC50 was measured?
Completion: 6.70 to 7.30

Prompt: Entry CC(C)N1Cc2sc(C(=O)c3cncnc3N[C@@H]3C[C@H](COS(N)(=O)=O)[C@@H](O)C3)cc2C2(C1)OCCc1ccc(Cl)cc12 (stereo partly drawn) , system SAE (Homo sapiens (Human)): what pIC50 was measured?
Completion: 6.70 to 7.30

Prompt: Entry NS(=O)(=O)OC[C@H]1C[C@@H](Nc2ncncc2C(=O)c2cc3c(s2)CC[C@]32OCCc3ccc(Cl)cc32)C[C@@H]1O , system SAE (Homo sapiens (Human)): what pIC50 was measured?
Completion: ≥ 7.30

Prompt: Entry COc1cc2c(cc1Cl)[C@@]1(CCCc3sc(C(=O)c4cncnc4N[C@@H]4C[C@H](COS(N)(=O)=O)[C@@H](O)C4)cc31)NCC2 , system SAE (Homo sapiens (Human)): what pIC50 was measured?
Completion: 6.70 to 7.30

Prompt: Entry NS(=O)(=O)OC[C@H]1C[C@@H](Nc2ncncc2C(=O)c2cc3c(s2)CCCC32NCCc3cc(Cl)ncc32)C[C@@H]1O (stereo partly drawn) , system SAE (Homo sapiens (Human)): what pIC50 was measured?
Completion: 6.70 to 7.30

Prompt: Entry NS(=O)(=O)OC[C@H]1C[C@@H](Nc2ncncc2C(=O)c2cc3c(s2)CC[C@]32NCCc3ccc(C4CC4)cc32)C[C@@H]1O , system SAE (Homo sapiens (Human)): what pIC50 was measured?
Completion: 6.70 to 7.30

Prompt: Entry NS(=O)(=O)OC[C@H]1C[C@@H](Nc2ncncc2C(=O)c2cc3c(s2)CCC32NCCc3ccccc32)C[C@@H]1O (stereo partly drawn) , system SAE (Homo sapiens (Human)): what pIC50 was measured?
Completion: < 6.70

Prompt: Entry COc1ccc2c(c1)[C@@]1(CCCc3sc(C(=O)c4cncnc4N[C@@H]4C[C@H](COS(N)(=O)=O)[C@@H](O)C4)cc31)NCC2 , system SAE (Homo sapiens (Human)): what pIC50 was measured?
Completion: < 6.70

Prompt: Entry NS(=O)(=O)OC[C@H]1C[C@@H](Nc2ncncc2C(=O)c2cc3c(s2)C(F)(F)C[C@]32NCCc3ccc(Cl)cc32)C[C@@H]1O , system SAE (Homo sapiens (Human)): what pIC50 was measured?
Completion: 6.70 to 7.30

Prompt: Entry NS(=O)(=O)OC[C@H]1C[C@@H](Nc2ncncc2C(=O)c2cc3c(s2)C=C[C@@]32OCCc3ccc(F)cc32)C[C@@H]1O , system SAE (Homo sapiens (Human)): what pIC50 was measured?
Completion: < 6.70

Prompt: Entry CN1Cc2sc(C(=O)c3cncnc3N[C@@H]3C[C@H](COS(N)(=O)=O)[C@@H](O)C3)cc2[C@]2(C1)OCCc1ccc(Cl)cc12 , system SAE (Homo sapiens (Human)): what pIC50 was measured?
Completion: ≥ 7.30

Prompt: Entry N#Cc1ccc2c(c1)C1(CCCc3sc(C(=O)c4cncnc4N[C@@H]4C[C@H](COS(N)(=O)=O)[C@@H](O)C4)cc31)NCC2 (stereo partly drawn) , system SAE (Homo sapiens (Human)): what pIC50 was measured?
Completion: 6.70 to 7.30

Prompt: Entry NS(=O)(=O)OC[C@H]1C[C@@H](Nc2ncncc2C(=O)c2cc3c(s2)CN(C2CC2)C[C@]32OCCc3ccc(F)cc32)C[C@@H]1O , system SAE (Homo sapiens (Human)): what pIC50 was measured?
Completion: ≥ 7.30

Prompt: Entry NS(=O)(=O)OC[C@H]1C[C@@H](Nc2ncncc2C(=O)c2cc3c(s2)CSC[C@@]32NCCc3ccc(Cl)nc32)C[C@@H]1O , system SAE (Homo sapiens (Human)): what pIC50 was measured?
Completion: < 6.70
